# System: virus attachment
# assayRemarks: cell-based p24 attachment assay
# Parameters: species or system HIV-1
# protocolConditions: Human immunodeficiency virus 1, read-out: Attachment I50
pIC50: −log10 of the molar value.
readout: pIC50

pIC50 reported for this molecule O=C(CCCC[n+]1ccccc1)Sc1ccccc1C(=O)Nc1ccc(S(=O)(=O)c2ccc([N+](=O)[O-])cc2)cc1 : < 4.00

* * *

# Test system: CEM-SS cells
# assayRemarks: cells
# Format: cell-based
# protocolConditions: Table 1; 50% cytotoxicity; read-out: IC50
Returns: string. Value is t if measured IC50 is below 50 µM, and f if it is greater than or equal to it.

{"compound": "O=C(Nc1ccc(S(=O)(=O)Nc2ncccn2)cc1)c1ccccc1SSc1ccccc1C(=O)Nc1ccc(S(=O)(=O)Nc2ncccn2)cc1 [Compound 5 D]", "cat": "t"}

# input for lookup
-- ask Is it true that IC50 reported for COc1cc(NS(=O)(=O)c2ccc(-n3sc4ccccc4c3=O)cc2)nc(OC)n1 [Compound 6 BITA] is less than 50 µM?
-- reply f

* * *

# Tested on: CEM-SS cells
# assayRemarks: cells
# Assay type: cell-based
# protocolConditions: Table 1; 50% cytotoxicity; read-out: IC50
readout: pIC50
When answering, recall that pIC50 equals minus log10 of the concentration in mol/L, and write that number alone.

# annotated cases, reported pIC50 shown
{"cpdSmiles": "Cc1noc(NS(=O)(=O)c2ccc(-n3sc4ccccc4c3=O)cc2)c1C", "recordedResult": 4.41}
{"cpdSmiles": "O=c1c2ccccc2sn1-c1ccc(S(=O)(=O)Nc2cnc3ccccc3n2)cc1", "recordedResult": 4.26}
{"cpdSmiles": "O=C(Nc1ccc(S(=O)(=O)Nc2ccc(Cl)nn2)cc1)c1ccccc1SSc1ccccc1C(=O)Nc1ccc(S(=O)(=O)Nc2ccc(Cl)nn2)cc1", "recordedResult": 4.74}
{"cpdSmiles": "COc1cc(NS(=O)(=O)c2ccc(NC(=O)c3ccccc3SSc3ccccc3C(=O)Nc3ccc(S(=O)(=O)Nc4cc(OC)nc(OC)n4)cc3)cc2)nc(OC)n1", "recordedResult": 4.28}
{"cpdSmiles": "O=C(NS(=O)(=O)c1ccc(NC(=O)c2ccccc2SSc2ccccc2C(=O)Nc2ccc(S(=O)(=O)NC(=O)c3ccccc3)cc2)cc1)c1ccccc1", "recordedResult": 4.27}

Summary line: Cc1cc(NS(=O)(=O)c2ccc(-n3sc4ccccc4c3=O)cc2)nc(C)n1 , CEM-SS cells, reported pIC50 = 4.40

Summary line: COc1ccnc(NS(=O)(=O)c2ccc(NC(=O)c3ccccc3SSc3ccccc3C(=O)Nc3ccc(S(=O)(=O)Nc4nccc(OC)n4)cc3)cc2)n1 , CEM-SS cells, reported pIC50 = 4.25

Summary line: Cc1cc(C)nc(NS(=O)(=O)c2ccc(-n3sc4ccccc4c3=O)cc2)n1 , CEM-SS cells, reported pIC50 = 4.77

Summary line: O=c1c2ccccc2sn1-c1ccc(S(=O)(=O)Nc2ccc(Cl)nn2)cc1 , CEM-SS cells, reported pIC50 = 4.72

Summary line: Cc1noc(NS(=O)(=O)c2ccc(NC(=O)c3ccccc3SSc3ccccc3C(=O)Nc3ccc(S(=O)(=O)Nc4onc(C)c4C)cc3)cc2)c1C , CEM-SS cells, reported pIC50 = 4.35

Summary line: O=c1c2ccccc2sn1-c1ccc(S(=O)(=O)Nc2ncccn2)cc1 , CEM-SS cells, reported pIC50 = 4.29

Summary line: COc1ccnc(NS(=O)(=O)c2ccc(-n3sc4ccccc4c3=O)cc2)n1 , CEM-SS cells, reported pIC50 = 4.24

Summary line: COc1cnc(NS(=O)(=O)c2ccc(-n3sc4ccccc4c3=O)cc2)nc1 , CEM-SS cells, reported pIC50 = 4.24

Summary line: O=C(Nc1ccc(S(=O)(=O)Nc2cnc3ccccc3n2)cc1)c1ccccc1SSc1ccccc1C(=O)Nc1ccc(S(=O)(=O)Nc2cnc3ccccc3n2)cc1 , CEM-SS cells, reported pIC50 = 4.65

Values from patent US7625917B2
